Test system: Streptococcus pneumoniae
Test details: Antibacterial activity against erythromycin-resistant Streptococcus pneumoniae B1 expressing ermB gene by broth microdilution method
Format: functional
Measurement type: MIC (µg/mL)

CC[C@H]1OC(=O)[C@H](C)[C@@H](OC(=O)N(C)c2ccccc2)[C@H](C)[C@@H](O[C@@H]2O[C@H](C)C[C@H](N(C)C)[C@H]2O)[C@](C)(O)C[C@@H](C)CN(C)[C@H](C)[C@H]2OC(=O)O[C@@]21C ... 64
CC[C@H]1OC(=O)[C@H](C)[C@@H](OC(=O)Nc2ccccc2)[C@H](C)[C@@H](O[C@@H]2O[C@H](C)C[C@H](N(C)C)[C@H]2O)[C@](C)(O)C[C@@H](C)CN(C)[C@H](C)[C@H]2OC(=O)O[C@@]21C ... 16
CC[C@H]1OC(=O)[C@H](C)[C@@H](O)[C@H](C)[C@@H](O[C@@H]2O[C@H](C)C[C@H](N(C)C)[C@H]2OC(=O)Nc2cccc(C)c2)[C@](C)(O)C[C@@H](C)CN(C)[C@H](C)[C@H]2OC(=O)O[C@@]21C ... 128
CC[C@H]1OC(=O)[C@H](C)[C@@H](OC(=O)Nc2ccccc2C)[C@H](C)[C@@H](O[C@@H]2O[C@H](C)C[C@H](N(C)C)[C@H]2O)[C@](C)(O)C[C@@H](C)CN(C)[C@H](C)[C@@H](OC(=O)NCc2ccccc2)[C@]1(C)O ... 32
CCCCc1ccc(NC(=O)O[C@H]2[C@H](O[C@@H]3[C@@H](C)[C@H](O)[C@@H](C)C(=O)O[C@H](CC)[C@@]4(C)OC(=O)O[C@@H]4[C@@H](C)N(C)C[C@H](C)C[C@@]3(C)O)O[C@H](C)C[C@@H]2N(C)C)cc1 ... 256
CC[C@H]1OC(=O)[C@H](C)[C@@H](O[C@H]2C[C@@](C)(OC)[C@@H](O)[C@H](C)O2)[C@H](C)[C@@H](O[C@@H]2O[C@H](C)C[C@H](N(C)C)[C@H]2O)[C@](C)(O)C[C@@H](C)CN(C)[C@H](C)[C@@H](O)[C@]1(C)O [AZITHROMYCIN] ... 256
CC[C@H]1OC(=O)[C@H](C)[C@@H](OC(=O)Nc2ccccc2C)[C@H](C)[C@@H](O[C@@H]2O[C@H](C)C[C@H](N(C)C)[C@H]2O)[C@](C)(O)C[C@@H](C)CN(C)[C@H](C)[C@H]2OC(=O)O[C@@]21C ... 32
CCCCCCNC(=O)O[C@H]1[C@H](C)[C@@H](O[C@@H]2O[C@H](C)C[C@H](N(C)C)[C@H]2OC(C)=O)[C@](C)(O)C[C@@H](C)CN(C)[C@H](C)[C@H]2OC(=O)O[C@]2(C)[C@@H](CC)OC(=O)[C@@H]1C ... 64
CC[C@H]1OC(=O)[C@H](C)[C@@H](OC(=O)Nc2cccc(OC)c2)[C@H](C)[C@@H](O[C@@H]2O[C@H](C)C[C@H](N(C)C)[C@H]2O)[C@](C)(O)C[C@@H](C)CN(C)[C@H](C)[C@H]2OC(=O)O[C@@]21C ... 64
CCCCCNC(=O)O[C@H]1[C@H](C)[C@@H](O[C@@H]2O[C@H](C)C[C@H](N(C)C)[C@H]2OC(C)=O)[C@](C)(O)C[C@@H](C)CN(C)[C@H](C)[C@H]2OC(=O)O[C@]2(C)[C@@H](CC)OC(=O)[C@@H]1C ... 64
CC[C@H]1OC(=O)[C@H](C)[C@@H](OC(=O)Nc2ccc(C(F)(F)F)cc2)[C@H](C)[C@@H](O[C@@H]2O[C@H](C)C[C@H](N(C)C)[C@H]2O)[C@](C)(O)C[C@@H](C)CN(C)[C@H](C)[C@H]2OC(=O)O[C@@]21C ... 32
CC[C@H]1OC(=O)[C@H](C)[C@@H](OC(=O)Nc2ccccc2F)[C@H](C)[C@@H](O[C@@H]2O[C@H](C)C[C@H](N(C)C)[C@H]2OC(C)=O)[C@](C)(O)C[C@@H](C)CN(C)[C@H](C)[C@H]2OC(=O)O[C@@]21C ... 128
CCCCCCNC(=O)O[C@@H]1[C@@H](C)N(C)C[C@H](C)C[C@@](C)(O)[C@H](O[C@@H]2O[C@H](C)C[C@H](N(C)C)[C@H]2O)[C@@H](C)[C@H](OC(=O)Nc2ccc(OC)cc2)[C@@H](C)C(=O)O[C@H](CC)[C@@]1(C)O ... 1
CC[C@H]1OC(=O)[C@H](C)[C@@H](OC(=O)Nc2cccc(C(F)(F)F)c2)[C@H](C)[C@@H](O[C@@H]2O[C@H](C)C[C@H](N(C)C)[C@H]2O)[C@](C)(O)C[C@@H](C)CN(C)[C@H](C)[C@H]2OC(=O)O[C@@]21C ... 32
CC[C@H]1OC(=O)[C@H](C)[C@@H](OC(=O)Nc2cccc(F)c2)[C@H](C)[C@@H](O[C@@H]2O[C@H](C)C[C@H](N(C)C)[C@H]2O)[C@](C)(O)C[C@@H](C)CN(C)[C@H](C)[C@H]2OC(=O)O[C@@]21C ... 64
CC[C@H]1OC(=O)[C@H](C)[C@@H](OC(=O)Nc2ccccc2)[C@H](C)[C@@H](O[C@@H]2O[C@H](C)C[C@H](N(C)C)[C@H]2O)[C@](C)(O)C[C@@H](C)CN(C)[C@H](C)[C@@H](OC(=O)NCc2ccc(C)cc2)[C@]1(C)O ... 64
